For each record, write down the corresponding Growth Rate.
- Test system: Fibroblast
- test-summary: Incucyte cell viability with human fibroblast; also: unitless GR value; below 1 slowed growth and below 0 cell loss
- Type: toxicity, cell-based
- experimental-conditions: 24 h, 10 µM, compound concentration 10 uM, replicate number 2, timepoint 24 hours
Give a plain numeric answer without units written out.

Recorded result, "CC(C)(C)c1cc(NC(=O)Nc2ccc(-c3cn4c(n3)sc3cc(OCCN5CCOCC5)ccc34)cc2)no1" , Growth Rate: 0.78

Recorded result, "CN(C)C(=O)Cn1cc(-c2ccc(-c3cncc4ccccc34)cc2)cn1" , Growth Rate: 0.61

Recorded result, "Br.Br.c1ncc(CC2CCNCC2)[nH]1" , Growth Rate: 0.76

Recorded result, "Cc1cc(Cn2cnc3c2C[C@@H](C(=O)O)N(C(=O)C(c2ccccc2)c2ccccc2)C3)ccc1N(C)C" , Growth Rate: 0.88

Recorded result, "Cc1nc[nH]c1CCN.Cl" , Growth Rate: 0.86

Recorded result, "CCOC(=O)c1c(/C(C#N)=C\N)c2ccc(Cl)c(Cl)c2n1C" , Growth Rate: 0.73

Recorded result, "Cn1cc(C(=O)OCC2CCN(CCNS(C)(=O)=O)CC2)c2ccccc21" , Growth Rate: 0.82

Recorded result, "CN[C@@H](C)C(=O)N[C@H](C(=O)N1CCC[C@H]1C(=O)Nc1snnc1-c1ccccc1)C1CCCCC1" , Growth Rate: -0.21

Recorded result, "CO[C@H]1CNC[C@@H](OCC2CCC(F)(F)CC2)[C@@H]1Nc1ncc(-c2cncc(C)c2)c2cc(C)c(=O)[nH]c12" , Growth Rate: 0.73

Recorded result, "CN(C)C(=O)Cn1cc(-c2ccc(-c3nnc4ccccn34)cc2)cn1" , Growth Rate: 0.74

Recorded result, "CCc1nnc(NS(=O)(=O)c2ccc(NC(=S)NC(=O)/C=C/c3ccc(F)cc3)cc2)s1" , Growth Rate: 0.61

Recorded result, "O=C(N[C@@H]1CC[C@@H](c2cccc(F)c2F)CN(CC(F)(F)F)C1=O)N1CCC(n2c(=O)[nH]c3ncccc32)CC1" , Growth Rate: 0.72

Recorded result, "N#Cc1c(N)nc(SCc2csc(-c3ccc(Cl)cc3)n2)c(C#N)c1-c1ccc(OCCO)cc1" , Growth Rate: 0.54

FYI, the data here is from ChEMBL document CHEMBL5058564.
